Recorded IC50, one value per entry.
# TESTED_TARGET: Recombinant Human PARP1 (Homo sapiens)
# Construct: purchased Trevigen
# PROTOCOL_NOTES: PARP1 enzymatic inhibition assay (Universal Chemiluminescent PARP Assay Kit)
# Format: biochemical
# MEASUREMENT_SETUP: recombinant human PARP1; mean ± SD, at least three independent experiments; read-out: Enzymatic inhibition (IC50, μM) PARP1
ASSAY_ENDPOINT: IC50

1. Clc1ccc(C=C2c3ccccc3CCc3ccccc32)cc1 [Compound 15c]: > 20 µM
2. CN(C)CCC=C1c2ccccc2COc2ccc(CC(=O)NCCO)cc21 [Compound 33k]: 19.1 µM
3. CN(C)CCC=C1c2ccccc2Cc2ccccc21 [Compound 26b]: 17.9 µM
4. CCOC(=O)Cc1ccc2c(c1)C(=CCCN(C)C)c1ccccc1CO2 [Compound 33b]: > 20 µM
5. Brc1ccc(C=C2c3ccccc3CCc3ccccc32)cc1 [Compound 15d]: > 20 µM
6. CN(C)CCCC=C1c2ccccc2Cc2ccccc21 [Compound 26c]: > 20 µM
7. CN(C)CCC=C1c2ccccc2Oc2ccccc21 [Compound 28b]: > 20 µM
8. CN(C)CCC=C1c2ccccc2COc2ccc(CC(=O)NC3CC3)cc21 [Compound 33n]: > 20 µM
9. CN(C)CC=C1c2ccccc2COc2ccccc21 [Compound 19a]: 13.2 µM
10. CN(C)CC/C=C1/c2ccccc2COc2ccc(CC(=O)O)cc21: 11.2 µM

###

# TESTED_TARGET: Recombinant Human PARP1 (Homo sapiens, UniProt P09874)
# Construct: purchased Trevigen
# Sequence (P09874 whole entry): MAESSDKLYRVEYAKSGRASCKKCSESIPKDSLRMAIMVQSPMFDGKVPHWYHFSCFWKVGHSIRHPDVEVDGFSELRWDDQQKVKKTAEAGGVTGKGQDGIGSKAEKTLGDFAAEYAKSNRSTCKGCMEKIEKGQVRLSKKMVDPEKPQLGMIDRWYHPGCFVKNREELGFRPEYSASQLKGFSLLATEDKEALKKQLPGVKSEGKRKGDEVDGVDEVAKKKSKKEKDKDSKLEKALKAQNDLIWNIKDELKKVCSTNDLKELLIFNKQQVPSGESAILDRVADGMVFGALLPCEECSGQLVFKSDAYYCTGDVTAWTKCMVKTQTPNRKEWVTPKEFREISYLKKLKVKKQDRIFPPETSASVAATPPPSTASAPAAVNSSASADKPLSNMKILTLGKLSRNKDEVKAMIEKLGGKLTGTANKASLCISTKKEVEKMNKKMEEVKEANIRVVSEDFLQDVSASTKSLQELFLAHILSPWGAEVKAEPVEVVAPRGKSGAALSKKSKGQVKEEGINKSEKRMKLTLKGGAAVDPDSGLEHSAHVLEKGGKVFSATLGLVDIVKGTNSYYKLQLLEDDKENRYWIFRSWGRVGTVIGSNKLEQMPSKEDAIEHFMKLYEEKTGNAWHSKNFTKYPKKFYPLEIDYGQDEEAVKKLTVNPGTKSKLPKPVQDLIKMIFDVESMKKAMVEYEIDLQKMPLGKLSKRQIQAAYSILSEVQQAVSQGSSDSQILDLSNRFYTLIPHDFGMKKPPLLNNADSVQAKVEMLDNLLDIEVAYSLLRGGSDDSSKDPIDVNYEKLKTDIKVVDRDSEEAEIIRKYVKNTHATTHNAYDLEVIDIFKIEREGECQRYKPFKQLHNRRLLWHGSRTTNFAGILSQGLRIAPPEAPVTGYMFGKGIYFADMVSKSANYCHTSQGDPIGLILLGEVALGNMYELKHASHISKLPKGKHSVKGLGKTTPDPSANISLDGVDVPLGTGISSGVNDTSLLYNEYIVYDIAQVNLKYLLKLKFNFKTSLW
# PROTOCOL_NOTES: PARP1 enzymatic inhibition assay (Universal Chemiluminescent PARP Assay Kit)
# Type: biochemical
# MEASUREMENT_SETUP: recombinant human PARP1; mean ± SD, at least three independent experiments; read-out: Enzymatic inhibition (IC50, μM) PARP1
# Experimental: The PARP1 enzymatic inhibition assay was performed by using Universal Chemiluminescent PARP Assay Kit (Trevigen, Gaithersburg, MD, USA) according to the manufacturer’s instruction and previous report. Briefly, serial dilutions of inhibitor were added to appropriate wells followed by addition of diluted PARP1 enzyme (0.5 Unit/well). […] Finally, immediately taking the chemiluminescent readings. The IC50 values of PARP1 inhibitors were determined using Prism 6 software (GraphPad, San Diego, CA, USA).
ASSAY_ENDPOINT: IC50

1) CN(C)CCCC=C1c2ccccc2CCc2ccccc21 [Compound 11f]: > 20 µM
2) C(=C1c2ccccc2CCc2ccccc21)c1ccccc1 [Compound 15a]: > 20 µM
3) CN(C)CCC=C1c2ccccc2CCc2ccccc21 [11d (PA-10)]: 1.65 µM
4) COCCCNC(=O)Cc1ccc2c(c1)C(=CCCN(C)C)c1ccccc1CO2 [Compound 33o]: > 20 µM
5) CN(C)CCC=C1c2ccccc2CSc2ccccc21 [Compound 23b]: 1.04 µM
6) CN(C)CC=C1c2ccccc2Oc2ccccc21 [Compound 28a]: > 20 µM
7) CN(C)CCCC=C1c2ccccc2CSc2ccccc21 [Compound 23c]: > 20 µM
8) CNCCCC=C1c2ccccc2CCc2ccccc21 [Compound 11e]: > 20 µM
9) CN(C)CC=C1c2ccccc2CSc2ccccc21 [Compound 23a]: 19.2 µM
10) CNCC=C1c2ccccc2CCc2ccccc21 [Compound 11a]: > 20 µM
11) CN(C)CCC=C1c2ccccc2COc2ccccc21 [Compound 19b]: 0.75 µM
12) CC(C)NC(=O)Cc1ccc2c(c1)C(=CCCN(C)C)c1ccccc1CO2 [Compound 33j]: 7.35 µM
13) Fc1ccc(C=C2c3ccccc3CCc3ccccc32)cc1 [Compound 15b]: > 20 µM
14) CN(C)CCCC=C1c2ccccc2Oc2ccccc21 [Compound 28c]: > 20 µM
15) CN(C)CCCC=C1c2ccccc2COc2ccccc21 [Compound 19c]: > 20 µM
16) CN(C)CC=C1c2ccccc2Cc2ccccc21 [Compound 26a]: > 20 µM
17) CN(C)CC=C1c2ccccc2CCc2ccccc21 [Compound 11b]: 16.2 µM
18) Cc1ccc(C=C2c3ccccc3CCc3ccccc32)cc1 [Compound 15e]: > 20 µM

###

# Tested on: MDA-MB-436 cells
# PROTOCOL_NOTES: Cell viability assay (MTT)
# Assay type: cell-based
# MEASUREMENT_SETUP: Homo sapiens; BRCA1 mutant MDA-MB-436 cells, MTT, Fig. 11A; read-out: anti-proliferative effects IC50
ASSAY_ENDPOINT: IC50 (µM)

1) CN(C)CC/C=C1/c2ccccc2COc2ccc(CC(=O)NN)cc21 [33e (OL-1)]: 5.14

###

# TESTED_TARGET: Recombinant Human PARP1 (Homo sapiens)
# Construct: purchased Trevigen
# PROTOCOL_NOTES: PARP1 enzymatic inhibition assay (Universal Chemiluminescent PARP Assay Kit)
# Assay type: biochemical
# MEASUREMENT_SETUP: Enzymatic inhibition (IC50, μM) PARP1, recombinant human PARP1; mean ± SD, at least three independent experiments
ASSAY_ENDPOINT: IC50 (µM)

1) CN(C)CC/C=C1/c2ccccc2COc2ccc(CC(=O)NN)cc21 [33e (OL-1)]: 0.079
